Experiment: Saturation solubility of RIF in buffered solutions
Assay type: physicochemical
Conditions: buffered solution, aqueous buffer, thermodynamic from solid, buffer pH 7.0, 37 °C
OBSERVABLE: solubility at 24 h (µg/mL)
Please give a number only; it is taken to be in µg/mL.

compound CO[C@H]1/C=C/O[C@@]2(C)Oc3c(C)c(O)c4c(O)c(c(/C=N/N5CCN(C)CC5)c(O)c4c3C2=O)NC(=O)/C(C)=C\C=C\[C@H](C)[C@H](O)[C@@H](C)[C@@H](O)[C@@H](C)[C@H](OC(C)=O)[C@@H]1C [RIF, Rifampicin] , solubility at 24 h observed: 870
